assay: basal RPMI8226 mitochondrial membrane potential changes, profiling panel, cell-based, JC-1 fluorescence, 24 h, 100 nL compound (AID 1169); conditions: RPMI8226 myeloma, JC-1 mitochondrial potential fluorescence, higher = more signal; note: test concentration not given here
measured_metric: z-score
The reply should be a number, written without any unit.

Examples with their reported z-score follow.
compound	measurement
C=C(COC)/C(=C/C[C@@H](OC(C)=O)c1cccc(OCCO)c1)c1cc(C(=O)OC)ccc1OC	0.127
CO[C@H]1O[C@H](CO)[C@@H](OC(=O)Nc2ccc3c(c2)OCO3)[C@H](OC(=O)Nc2ccccc2)[C@@H]1OC(=O)Nc1ccccc1	-0.611
COCCOC(=O)N1C(=O)[C@@]2(c3cc(C#CCNC(N)=O)ccc31)[C@H](c1ccccc1OCCO)N1[C@H](c3ccccc3)[C@H](c3ccccc3)OC(=O)[C@H]1[C@@H]2C(=O)NC[C@H](O)c1ccccc1	-0.305
C=CC[C@]1(C(=O)O)N=C(c2ccc(OCCCO)cc2)O[C@H]1c1ccccc1N=[N+]=[N-]	-0.837
CN1C2C=C(c3ccc(CO)cc3)C(C3C(=O)N(C(N)=O)C(=O)C32)C1c1cccs1 (configuration not stated)	-0.21
COc1ccc([Si](C)(C)[C@@H]2[C@@H](CC(=O)N(CCO)Cc3ccccc3)O[C@]3(C(=O)N(Cc4cccc(N5CCC5=O)c4)c4ccccc43)[C@H]2C)cc1	-0.917

What value of measured z-score is listed for CC(C)[Si](OCCCNS(=O)(=O)c1ccc(Br)cc1)(C(C)C)C(C)C ?
-0.218
